So I've got a bunch of molecules here, and I need their TGI values.
# System: CCRF-CEM leukemia
# assay.overview: NCI tumour cell line growth inhibition, 48 h

molecule	TGI
O=C1NC(N2CCOCC2)=N/C1=C\c1ccc(O)cc1	> 100 µM
CCN(CC)C(=O)Cn1c2c(c3ccccc31)CCCC2	> 100 µM

Now consider a different molecule.
Tested on CCRF-CEM leukemia: O=C1CSC(c2ccccc2Cl)N1c1nnc(Cn2cnnc2)o1 (stereo not drawn) . Observed TGI: > 100 µM

###

Exercise: state measured TGI for each of the compounds provided.
# Test system: HOP-92 NSCLC
# assay.overview: NCI tumour cell line growth inhibition, 48 h

compound	TGI
COc1ccc(Oc2ccccc2N)cc1	> 100 µM
Cc1ccc2nc(NC(=O)C(=O)C(C#N)c3ccc(Cl)cc3)sc2c1 (configuration not stated)	> 50 µM
CC(=O)OCC1OC(n2c(C)c(C)c(C)c(C#N)c2=S)C(OC(C)=O)C(OC(C)=O)C1OC(C)=O (configuration not stated)	> 100 µM
CC(=O)OC12C=C(C)C(C(C)C1)C1C(=O)N(CCN3CCCCC3)C(=O)C12 (configuration not stated)	> 50 µM

Each compound below has a recorded value; state its TGI.
1. Oc1ccc(Oc2cc3c(cc2Oc2ccc(O)cc2)-c2nc-3nc3[nH]c(nc4nc(nc5[nH]c(n2)c2cc(Oc6ccc(O)cc6)c(Oc6ccc(O)cc6)cc52)-c2cc(Oc5ccc(O)cc5)c(Oc5ccc(O)cc5)cc2-4)c2cc(Oc4ccc(O)cc4)c(Oc4ccc(O)cc4)cc32)cc1
2. COc1ccc2cc(C(C)C(=O)N3C(=O)OCC3(C)C)ccc2c1 (configuration not stated)
3. Cc1cc(-c2nc3cccc(O)c3s2)ccc1N
4. CC(C)c1cc(C(C)C)c(S(=O)(=O)N=[N+]=[N-])c(C(C)C)c1
5. CCCCN(C)/N=N/c1nc[nH]c1C(N)=O
6. O=C1NC(Cc2ccc(O)cc2)C(=O)NC1Cc1ccc(O)cc1 (configuration not stated)

Result:
> 100 µM
> 100 µM
> 100 µM
> 100 µM
> 100 µM
> 100 µM

For each listed entry, give its TGI.
1. Cc1nc(Nc2ccccc2Cl)sc1C(=O)CC(=O)C(N)=O
2. COC(=O)c1c(-c2cccs2)oc(-c2cccs2)c1C(=O)OC

Result:
1. > 100 µM
2. > 100 µM

Value source: PubChem BioAssay (NCI)
